- test-name: Half life in mouse liver microsomes at 1 uM in presence of NADPH generating system by LC-MS/MS analysis
- Type: ADME, microsome
I'd be grateful if you could share measured half-life at 1 µM for these entries.
Answers are plain numbers, in min.

Give half-life at 1 µM for all compounds that follow.
1. Brc1ccc(CNC23CCC4CC(CC(C4)C2)C3)s1
2. Brc1ccc(CNC23CC4CC(CC(C4)C2)C3)[se]1
3. OC12CC3CC(C1)CC(NCc1cc(Br)cs1)(C3)C2
4. c1csc(-c2ccc(CNC34CC5CC(CC(C5)C3)C4)s2)c1
5. Ic1ccc(CNC23CC4CC(CC(C4)C2)C3)s1

Reply text:
[9.1, 32.1, 101, 2.8, 24.5]

* * *

Provide the reported half-life at 1 µM of each item.
- test-name: Half life in human liver microsomes at 1 uM in presence of NADPH generating system by LC-MS/MS analysis
- Format: ADME, microsome

OC12CC3CC(C1)CC(NCc1ccc(I)s1)(C3)C2
> 2.42 h

From here, focus on the item given below.
Inquiry: Query half-life at 1 µM for OC12CC3CC(C1)CC(NCc1ccc(Br)s1)(C3)C2
Reply text: > 2.42 h

* * *

For each of the molecules below, state its CLint scaled at 0.5 µM.
- test-name: Intrinsic clearance in mouse liver microsomes at 0.5 uM
- Format: ADME, microsome
- setup-conditions: read-out: CLH
Give bare numbers, in mL/min/kg.

Solved entries (count: 2):
OC12CC3CC(C1)CC(NCc1cnc(N4CCCCC4)nc1)(C3)C2
283
c1nc(N2CCCCCC2)ncc1CNC12CC3CC(CC(C3)C1)C2
6760

Moving on to another molecule below.
Inquiry: # return recorded CLint scaled at 0.5 µM for entry OC12CC3CC(C1)CC(NCc1ccc(N4CCCCCC4)cn1)(C3)C2
Reply text: 248

* * *

For each entry below, report its inhibition value.
- Tested on: Influenza A virus
- test-name: Inhibition of Influenza A virus AM2 expressed in xenopus laevis frog oocytes assessed as inhibition of channel current at 100 uM after 2 mins by two-electrode voltage clamp assay relative to control
- Type: cell-based
Answers are plain numbers, in %.

Observe how each entry below is paired with its result.
c1csc(-c2ccc(CNC34CC5CC(CC(C5)C3)C4)s2)c1
17.9
OC12CC3CC(C1)CC(NCc1ccc(-c4ccccc4Cl)s1)(C3)C2
0
Brc1ccc(CNC23CC4CC(CC(C4)C2)C3)s1
77.2
Brc1ccc(CNC23CCC4CC(CC(C4)C2)C3)s1
86.5

Provide reported inhibition for each item, in the same order as listed.
1. COc1ncc(-c2ccc(CNC34CC5CC(CC(O)(C5)C3)C4)s2)cn1
2. Brc1ccc(CNC23CC4CC(CC(C4)C2)C3)[se]1
3. COC(=O)c1ccc(-c2ccc(CNC34CC5CC(CC(O)(C5)C3)C4)s2)cc1
4. OC12CC3CC(C1)CC(NCc1cnc(Br)s1)(C3)C2
5. CSc1ccccc1-c1ccc(CNC23CC4CC(CC(O)(C4)C2)C3)s1

Reply text:
1. 0
2. 56.1
3. 0
4. 2.7
5. 0

# return inhibition for each item in the list
1. COc1ccc(-c2ccc(CNC34CC5CC(CC(O)(C5)C3)C4)s2)cn1
2. OC12CC3CC(C1)CC(NCc1ccc(I)s1)(C3)C2
3. OC12CC3CC(C1)CC(NCc1cc(Br)cs1)(C3)C2
4. Ic1ccc(CNC23CC4CC(CC(C4)C2)C3)s1

Reply text:
1. 0
2. 3.2
3. 6.5
4. 91

* * *

- test-name: Intrinsic clearance in mouse liver microsomes at 1 uM in presence of NADPH generating system by LC-MS/MS analysis
- Assay type: ADME, microsome
- setup-conditions: read-out: CLH
For each record, write down the corresponding log10 CLint scaled at 1 µM.
Would you kindly interpret these values as log10 of CLint scaled at 1 µM expressed in mL/min/kg?

Before answering, review these 4 worked examples.
Ic1ccc(CNC23CC4CC(CC(C4)C2)C3)s1
2.35
c1csc(-c2ccc(CNC34CC5CC(CC(C5)C3)C4)s2)c1
3.29
Brc1ccc(CNC23CC4CC(CC(C4)C2)C3)[se]1
2.23
Brc1ccc(CNC23CCC4CC(CC(C4)C2)C3)s1
2.78

With those in mind, consider the next compound.
Inquiry: Quick one: give measured log10 CLint scaled at 1 µM for OC12CC3CC(C1)CC(NCc1cc(Br)cs1)(C3)C2
Reply text: 1.74

* * *

- test-name: Cytotoxicity against MDCK cells after 48 hrs by neutral red uptake assay
- Assay type: cell-based, Canis lupus familiaris
- setup-conditions: dog
Quick rule for you: CC50 at 48 h under 100 µM gets 1, anything else gets -1.

Please review the following examples before continuing.
OC12CC3CC(C1)CC(NCc1ccc(Br)s1)(C3)C2
-1
OC12CC3CC(C1)CC(NCc1ccc(I)s1)(C3)C2
-1
OC12CC3CC(C1)CC(NCc1cc(Br)cs1)(C3)C2
-1

Inquiry: Please indicate whether the reported CC50 at 48 h of OC12CC3CC(C1)CC(NCc1csc(Br)c1)(C3)C2 is strictly below 100 µM.
Reply text: -1

Inquiry: Please let me know if Brc1ccc(CNC23CCC4CC(CC(C4)C2)C3)s1 shows CC50 at 48 h below 100 µM.
Reply text: 1

Inquiry: A record lists Ic1ccc(CNC23CC4CC(CC(C4)C2)C3)s1 . Is its CC50 at 48 h below 100 µM?
Reply text: 1

Inquiry: Say whether its CC50 at 48 h is strictly beneath 100 µM. Entry: OC12CC3CC(C1)CC(NCc1ccc(-c4ccccc4Cl)s1)(C3)C2
Reply text: 1

Inquiry: # check: CC50 at 48 h < 100 µM for OC12CC3CC(C1)CC(NCc1ccc(-c4ccccc4)s1)(C3)C2
Reply text: 1

Inquiry: Is it true that CC50 at 48 h reported for Brc1ccc(CNC23CC4CC(CC(C4)C2)C3)[se]1 is less than 100 µM?
Reply text: 1

Inquiry: Please indicate whether the reported CC50 at 48 h of c1csc(-c2ccc(CNC34CC5CC(CC(C5)C3)C4)s2)c1 is strictly below 100 µM.
Reply text: 1

Inquiry: In the record for Brc1ccc(CNC23CC4CC(CC(C4)C2)C3)s1 , is CC50 at 48 h less than 100 µM?
Reply text: -1

* * *

- test-name: Half life in mouse liver microsomes at 0.5 uM
- Type: ADME, microsome
- setup-conditions: liver microsomes
metric: half-life at 0.5 µM

Count: 4. Required value per item: half-life at 0.5 µM.
1. c1nc(N2CCCCCC2)ncc1CNC12CC3CC(CC(C3)C1)C2
2. OC12CC3CC(C1)CC(NCc1cnc(N4CCCCC4)nc1)(C3)C2
3. Brc1ccc(CNC23CC4CC(CC(C4)C2)C3)s1
4. OC12CC3CC(C1)CC(NCc1ccc(N4CCCCCC4)cn1)(C3)C2

Reply text:
0.8 min
19.4 min
> 145 min
22.1 min

* * *

- test-name: Half life in mouse liver microsomes at 1 uM in presence of NADPH generating system by LC-MS/MS analysis
- Type: ADME, microsome
metric: half-life at 1 µM

Would you please look over these solved cases?
Brc1ccc(CNC23CC4CC(CC(C4)C2)C3)s1
> 145 min
OC12CC3CC(C1)CC(NCc1ccc(I)s1)(C3)C2
> 145 min

Next:
Inquiry: // Input: OC12CC3CC(C1)CC(NCc1ccc(Br)s1)(C3)C2 . Output its half-life at 1 µM only.
Reply text: > 145 min

* * *

Give CLint scaled at 1 µM for every item shown.
- test-name: Intrinsic clearance in mouse liver microsomes at 1 uM in presence of NADPH generating system by LC-MS/MS analysis
- Type: ADME, microsome
- setup-conditions: read-out: CLH

The cases that follow already have their CLint scaled at 1 µM on record.
Brc1ccc(CNC23CC4CC(CC(C4)C2)C3)s1
< 38 mL/min/kg
OC12CC3CC(C1)CC(NCc1ccc(I)s1)(C3)C2
< 38 mL/min/kg

Query compound follows.
Inquiry: Hello, please tell me recorded CLint scaled at 1 µM for this one: OC12CC3CC(C1)CC(NCc1ccc(Br)s1)(C3)C2
Reply text: < 38 mL/min/kg
